Please provide measured Ki for the entries that follow.
# Experimental System: Alpha-2A adrenergic receptor (Sus scrofa, UniProt P18871)
# Sequence (P18871 whole entry): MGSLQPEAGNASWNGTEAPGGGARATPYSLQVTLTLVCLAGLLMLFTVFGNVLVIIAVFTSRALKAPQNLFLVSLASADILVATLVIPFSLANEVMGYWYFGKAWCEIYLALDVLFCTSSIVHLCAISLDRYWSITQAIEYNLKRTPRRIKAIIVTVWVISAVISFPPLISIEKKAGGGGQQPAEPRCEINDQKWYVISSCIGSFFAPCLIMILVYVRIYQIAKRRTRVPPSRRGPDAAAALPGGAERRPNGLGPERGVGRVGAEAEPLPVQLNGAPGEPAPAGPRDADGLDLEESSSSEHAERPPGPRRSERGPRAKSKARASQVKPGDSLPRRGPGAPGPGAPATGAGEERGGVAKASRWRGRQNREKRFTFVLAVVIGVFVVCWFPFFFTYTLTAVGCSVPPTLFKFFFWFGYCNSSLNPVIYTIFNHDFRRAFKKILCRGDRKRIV
Quick reminder: number only, in nM, skip the unit.

Q) State its Ki on Alpha-2A adrenergic receptor (Sus scrofa, UniProt P18871): CN(C)CCCN1c2ccccc2Sc2ccc(Cl)cc21
A) 64

Q) # repeat for NCC(O)c1ccc(O)c(O)c1 (stereo not drawn) [Noradrenaline,(+)]
A) 371

Q) # repeat for CC(C)=CCOc1ccc(Cl)c2c1CCN(C)CC2
A) 35

Q) # repeat for COC(=O)C1=COC(C)C2CN3CCc4c([nH]c5ccccc45)C3CC12 (configuration not stated)
A) 10

Q) # repeat for COc1cccc(OC)c1OCCNCC1Oc2ccccc2OC1c1ccccc1 (configuration not stated)
A) 0.95

Q) # repeat for CN1C[C@H](Cn2ccnc2-c2ccccc2)C[C@@H]2c3cccc4[nH]c(Br)c(c34)C[C@H]21
A) 0.52

Q) # repeat for O=C1NCN(c2ccccc2)C12CCN(CC1COc3ccccc3O1)CC2 (configuration not stated)
A) 3.36

###

# Experimental System: Alpha-2A adrenergic receptor (Bos taurus, UniProt Q28838)
# Sequence (Q28838 whole entry): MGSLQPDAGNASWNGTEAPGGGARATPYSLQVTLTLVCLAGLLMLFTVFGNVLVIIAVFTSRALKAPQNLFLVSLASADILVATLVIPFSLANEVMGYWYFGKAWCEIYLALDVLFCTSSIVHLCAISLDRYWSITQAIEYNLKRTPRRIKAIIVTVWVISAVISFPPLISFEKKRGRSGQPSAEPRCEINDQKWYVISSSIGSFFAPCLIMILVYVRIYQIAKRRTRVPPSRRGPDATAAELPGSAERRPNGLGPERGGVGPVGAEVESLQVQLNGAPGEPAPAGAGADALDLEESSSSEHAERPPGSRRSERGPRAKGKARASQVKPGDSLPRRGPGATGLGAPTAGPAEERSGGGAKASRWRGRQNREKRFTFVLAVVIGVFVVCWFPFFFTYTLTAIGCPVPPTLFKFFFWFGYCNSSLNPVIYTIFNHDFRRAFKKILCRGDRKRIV
Please provide measured Ki for the entries that follow.

Q) Fill blank: measured Ki of the molecule CC(C)=CCOc1ccc(Cl)c2c1CCN(C)CC2 is ____.
A) 0.153 µM

Q) # repeat for COc1cc2nc(N3CCN(C(=O)c4ccco4)CC3)nc(N)c2cc1OC [[3H]-Minipress]
A) 1.37 µM

Q) # repeat for CN1C[C@H](Cn2ccnc2-c2ccccc2)C[C@@H]2c3cccc4[nH]c(Br)c(c34)C[C@H]21
A) 0.149 µM

Q) # repeat for NCC(O)c1ccc(O)c(O)c1 (stereo not drawn) [Noradrenaline,(+)]
A) 1.09 µM

Q) # repeat for COc1cccc(OC)c1OCCNCC1Oc2ccccc2OC1c1ccccc1 (configuration not stated)
A) 0.0132 µM

Q) # repeat for O=C1NCN(c2ccccc2)C12CCN(CC1COc3ccccc3O1)CC2 (configuration not stated)
A) 0.0105 µM

Q) # repeat for Cc1cc(C(C)(C)C)c(O)c(C)c1CC1=NCCN1
A) 0.035 µM
